# system: α-glucosidase (Saccharomyces cerevisiae)
# Construct: purchased Merck KGaA, Darmstadt, Germany
# Sequence (P38158 whole entry): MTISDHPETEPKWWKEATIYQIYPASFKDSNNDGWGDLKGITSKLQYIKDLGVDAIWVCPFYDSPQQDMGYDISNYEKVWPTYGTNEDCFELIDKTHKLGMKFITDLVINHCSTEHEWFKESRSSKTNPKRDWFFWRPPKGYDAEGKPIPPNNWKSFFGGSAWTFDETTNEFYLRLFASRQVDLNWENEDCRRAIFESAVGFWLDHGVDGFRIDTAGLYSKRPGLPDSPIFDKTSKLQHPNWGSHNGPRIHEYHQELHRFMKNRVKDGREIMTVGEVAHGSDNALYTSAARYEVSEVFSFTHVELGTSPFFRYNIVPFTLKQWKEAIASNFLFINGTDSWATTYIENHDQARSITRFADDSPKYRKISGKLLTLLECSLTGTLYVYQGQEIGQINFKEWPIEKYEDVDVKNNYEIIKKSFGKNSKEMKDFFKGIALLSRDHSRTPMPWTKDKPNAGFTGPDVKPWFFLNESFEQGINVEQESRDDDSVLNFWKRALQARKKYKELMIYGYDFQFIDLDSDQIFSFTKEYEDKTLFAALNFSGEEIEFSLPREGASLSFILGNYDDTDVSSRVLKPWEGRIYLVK
# protocol description: Yeast α-glucosidase inhibitory assay (pNPG substrate, absorbance 405 nm)
# Assay type: biochemical
# test conditions: α-glucosidase 0.05 × 10^−6 M; 2 mM pNPG; read-out: IC50
measured property: IC50 (µM)
// note: answer is a bare numeric in µM

Name the recorded IC50 for O=c1cc(-c2ccc(O)c(O)c2)oc2cc(O)cc(O)c12 [Luteolin, 3’,4’,5,7-tetrahydroxyflavone] .
21.6

----------
# system: α-glucosidase (Saccharomyces cerevisiae)
# Construct: purchased Merck KGaA, Darmstadt, Germany
# protocol description: Yeast α-glucosidase inhibitory assay (pNPG substrate, absorbance 405 nm)
# Type: biochemical
# test conditions: α-glucosidase 0.075 × 10^−6 M; 2 mM pNPG; read-out: IC50
measured property: IC50 (µM)
Express the result in µM but write the number alone.

What IC50 value was documented for this compound, O=c1cc(-c2ccc(O)c(O)c2)oc2cc(O)cc(O)c12 [Luteolin, 3’,4’,5,7-tetrahydroxyflavone] ?
32.3

----------
# system: α-glucosidase (Saccharomyces cerevisiae)
# Construct: purchased Merck KGaA, Darmstadt, Germany
# protocol description: Yeast α-glucosidase inhibitory assay (pNPG substrate, absorbance 405 nm)
# Format: biochemical
# test conditions: IC50, α-glucosidase 0.025 × 10^−6 M; 2 mM pNPG
measured property: pIC50
pIC50 here: minus log base 10 of the concentration, concentration in moles per litre.

Name the recorded pIC50 for C=CCc1ccc(O)c(-c2cc(CC=C)ccc2O)c1 [Magnolol, 5,5′-diallyl-biphenyl-2,2′-diol] .
4.55

----------
# system: α-glucosidase (Saccharomyces cerevisiae)
# Construct: purchased Merck KGaA, Darmstadt, Germany
# protocol description: Yeast α-glucosidase inhibitory assay (pNPG substrate, absorbance 405 nm)
# Assay type: biochemical
# test conditions: IC50, α-glucosidase 0.125 × 10^−6 M; 2 mM pNPG
measured property: IC50 (µM)
API: value field is a number in µM; no unit string.

I have this compound here, C=CCc1ccc(O)c(-c2cc(CC=C)ccc2O)c1 , and I need its recorded IC50.
35.5

----------
# system: α-glucosidase (Saccharomyces cerevisiae)
# Construct: purchased Merck KGaA, Darmstadt, Germany
# protocol description: Yeast α-glucosidase inhibitory assay (pNPG substrate, absorbance 405 nm)
# Assay type: biochemical
# test conditions: α-glucosidase 0.125 × 10^−6 M; 2 mM pNPG; read-out: IC50
measured property: pIC50
FYI, pIC50 means -log10 of a concentration in mol per litre.

I would be grateful if you could share the reported pIC50 for O=c1cc(-c2ccc(O)c(O)c2)oc2cc(O)cc(O)c12 [Luteolin, 3’,4’,5,7-tetrahydroxyflavone] .
4.23
